Attribution: patent EP0943336A1

assay: Absorption after oral administration of buserelin composition (blood buserelin level, direct method); assay type: in vivo, cynomolgus monkeys; details: cynomolgus monkey, blood, po, 150 min after oral dose; Animal No. 2; calcium carbonate carrier, enteric capsules
property: level at 2.5 h

-- ask Field request: level at 2.5 h | item: CCNC(=O)[C@@H]1CCCN1C(=O)[C@H](CCCNC(=N)N)NC(=O)[C@H](CC(C)C)NC(=O)[C@@H](COC(C)(C)C)NC(=O)[C@H](Cc1ccc(O)cc1)NC(=O)[C@H](CO)NC(=O)[C@H](Cc1c[nH]c2ccccc12)NC(=O)[C@H](Cc1cnc[nH]1)NC(=O)[C@@H]1CCC(=O)N1 [buserelin, Buserelin]
-- reply 0.193 ng/mL

* * *

experiment: Absorption after oral administration of buserelin composition (blood buserelin level, direct method); format: in vivo, cynomolgus monkeys; conditions: cynomolgus monkey, blood, po, 150 min after oral dose; Animal No. 3; calcium carbonate carrier, enteric capsules
property: level at 2.5 h
The answer should read as a number with its unit following.

-- ask Field request: level at 2.5 h | item: CCNC(=O)[C@@H]1CCCN1C(=O)[C@H](CCCNC(=N)N)NC(=O)[C@H](CC(C)C)NC(=O)[C@@H](COC(C)(C)C)NC(=O)[C@H](Cc1ccc(O)cc1)NC(=O)[C@H](CO)NC(=O)[C@H](Cc1c[nH]c2ccccc12)NC(=O)[C@H](Cc1cnc[nH]1)NC(=O)[C@@H]1CCC(=O)N1
-- reply 0.07 ng/mL

* * *

assay: Absorption after oral administration of buserelin composition (blood buserelin level, direct method); type: in vivo, cynomolgus monkeys; conditions: cynomolgus monkey, blood, po, 120 min after oral dose; Animal No. 1; calcium carbonate carrier, enteric capsules
property: level at 2 h (ng/mL)
Response body: numeric value in ng/mL, unit text excluded.

-- ask Field request: level at 2 h | item: CCNC(=O)[C@@H]1CCCN1C(=O)[C@H](CCCNC(=N)N)NC(=O)[C@H](CC(C)C)NC(=O)[C@@H](COC(C)(C)C)NC(=O)[C@H](Cc1ccc(O)cc1)NC(=O)[C@H](CO)NC(=O)[C@H](Cc1c[nH]c2ccccc12)NC(=O)[C@H](Cc1cnc[nH]1)NC(=O)[C@@H]1CCC(=O)N1
-- reply 0.066
